- procedureSummary: PK i.v. bolus in healthy and adenine/high-phosphate-diet (uremic) rats
- Assay type: in vivo, male Sprague-Dawley rats
- runParameters: male, Sprague-Dawley, rat, plasma, iv, 10 mg/kg, Uremic, i.v., Time 10 min, individual rats; read-out: plasma concentration (Figure 4g)
endpoint: concentration at 10 min (µM)
Answers are plain numbers, in µM.

concentration at 10 min for COCCOCCO[C@@H]1[C@@H](OP(=O)(O)O)[C@H](OCCOCCOC)[C@@H](OP(=O)(O)O)[C@@H](OP(=O)(O)O)[C@H]1OP(=O)(O)O [(OEG2)2-IP4] is 46

----------
- procedureSummary: PK in healthy rats, s.c.
- Format: in vivo, male Sprague-Dawley rats
- runParameters: male, Sprague-Dawley, rat, in vivo, sc; 10 mg/kg s.c.
endpoint: AUC(0-inf) (µM·h)
Give bare numbers, in µM·h.

So for COCCOCCO[C@@H]1[C@@H](OP(=O)(O)O)[C@H](OCCOCCOC)[C@@H](OP(=O)(O)O)[C@@H](OP(=O)(O)O)[C@H]1OP(=O)(O)O [(OEG2)2-IP4] , the logged AUC(0-inf) turned out to be 19.9

----------
- Test system: transformation of CPP1 to CPP2 in pooled human serum
- procedureSummary: In vitro serum calcification propensity (T50) screening assay
- Assay type: biochemical
- runParameters: mean of n experiments
endpoint: concentration upon which a T50 of 350 min is reached (c350), mean

In the examples that follow, each entry is paired with its recorded concentration upon which a T50 of 350 min is reached (c350), mean.
molecule="O=P1(O)OP(=O)(O)O[C@H]2[C@@H](O1)[C@@H]1OP(=O)(O)OP(=O)(O)O[C@H]1[C@@H]1OP(=O)(O)OP(=O)(O)O[C@@H]21 (racemic) [ITPP, myo-inositol trispyrophosphate]" experimentalsystem="transformation of CPP1 to CPP2 in pooled human serum" result="> 100 µM"
molecule=O=C([O-])CC(O)(CC(=O)[O-])C(=O)[O-].O=C([O-])CC(O)(CC(=O)[O-])C(=O)[O-].[Mg+2].[Mg+2].[Mg+2] experimentalsystem="transformation of CPP1 to CPP2 in pooled human serum" result="> 100 µM"

Entry O[C@H]1[C@H](O)[C@@H](O)[C@H](O)[C@@H](O)[C@H]1O , concentration upon which a T50 of 350 min is reached (c350), mean reported as > 100 µM
